test system: giant foxtail (Setaria faberii); assay: Test A postemergence; format: in vivo; conditions: Setaria faberi, post-emergence, 240 h, 125 g ai/ha, Postemergence; visual injury after approximately 10 d; 0 to 100 scale where 0 is no effect and 100 is complete control; read-out: Plant response rating, Foxtail, Giant
Please respond with reported pest or weed control at 125 g/ha for every item in the list.
Give a bare numeral; the unit % is implied.

Q: Requested field: pest or weed control at 125 g/ha. Item: Cc1cc([C@H]2CN(C)C(=O)[C@@H]2C(=O)Nc2cccc(F)c2F)ccc1Cl
Ans: 90

Q: Requested field: pest or weed control at 125 g/ha. Item: C=CCOc1cccc(C2CN(C)C(=O)C2C(=O)Nc2cccc(F)c2F)c1 (stereo not shown)
Ans: 90

Q: Requested field: pest or weed control at 125 g/ha. Item: Cc1cc([C@H]2CN(C)C(=O)[C@@H]2C(=O)Nc2ccccc2C(F)(F)F)ccc1Cl
Ans: 90

Q: Requested field: pest or weed control at 125 g/ha. Item: CCOc1cccc([C@H]2CNC(=O)[C@@H]2C(=O)Nc2cccc(F)c2F)c1
Ans: 0

Q: Requested field: pest or weed control at 125 g/ha. Item: CCOc1cccc([C@H]2CNC(=O)[C@@H]2C(=O)Nc2ccc(F)cc2F)c1
Ans: 0

Q: Requested field: pest or weed control at 125 g/ha. Item: CCOc1cccc([C@H]2CN(C)C(=O)[C@@H]2C(=O)Nc2ccccc2F)c1
Ans: 80

Q: Requested field: pest or weed control at 125 g/ha. Item: CSc1ccccc1NC(=O)[C@H]1C(=O)N(C)C[C@@H]1c1ccc(F)c(Br)c1
Ans: 80

Q: Requested field: pest or weed control at 125 g/ha. Item: CSc1ccccc1NC(=O)[C@H]1C(=O)N(C)C[C@@H]1c1ccc(C)c(Cl)c1
Ans: 80

Q: Requested field: pest or weed control at 125 g/ha. Item: Cc1ccc([C@H]2CN(C)C(=O)[C@@H]2C(=O)Nc2cccc(F)c2C)cc1F
Ans: 90

Q: Requested field: pest or weed control at 125 g/ha. Item: CN1C[C@H](c2cc(F)cc(F)c2)[C@@H](C(=O)Nc2ccc(O)cc2F)C1=O
Ans: 0
